- targetOrTestSystem: CB2 receptor (Mus musculus, UniProt P47936)
- Sequence (P47936 whole entry): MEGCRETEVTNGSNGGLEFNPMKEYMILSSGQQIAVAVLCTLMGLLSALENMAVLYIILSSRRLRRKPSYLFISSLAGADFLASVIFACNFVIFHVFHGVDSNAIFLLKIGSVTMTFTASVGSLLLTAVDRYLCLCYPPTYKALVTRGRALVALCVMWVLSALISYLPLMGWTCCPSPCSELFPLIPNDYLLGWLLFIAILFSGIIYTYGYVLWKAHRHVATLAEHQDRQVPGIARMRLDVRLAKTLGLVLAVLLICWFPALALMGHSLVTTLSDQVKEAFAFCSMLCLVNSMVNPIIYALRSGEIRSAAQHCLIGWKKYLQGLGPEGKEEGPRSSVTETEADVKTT
attributeMeasured: pKi
Recall that pKi is obtained by taking minus log10 of the concentration measured in molar.

{"columns": ["compound", "pKi"],
 "data": [
  ["[N-]=[N+]=NCCCC/C=C\\C/C=C\\C/C=C\\C/C=C\\CCCC(=O)NC1=NCCS1", 6.29],
  ["CCCCC/C=C\\C/C=C\\C/C=C\\C/C=C\\CCCCOC(=O)Nc1ccc(O)cc1", 6.27],
  ["[N-]=[N+]=NCCCCC/C=C\\C/C=C\\C/C=C\\C/C=C\\CCCC(=O)NC1=NCCS1", 6.61],
  ["CC/C=C\\C/C=C\\C/C=C\\CCCCCCCCOC(=O)NC[C@H](C)O", 6.38],
  ["CCCCCN(C)C/C=C\\C/C=C\\C/C=C\\C/C=C\\CCCCNC(=O)COC [Compound A24]", 6.36],
  ["C[C@H](CO)NC(=O)CCC/C=C\\C/C=C\\C/C=C\\C/C=C\\C12CC3CC(CC(C3)C1)C2", 5.46],
  ["O=C(CCC/C=C\\C/C=C\\C/C=C\\C/C=C\\CCCCc1ccccc1)NCC1CC1", 6.75]
]}

Let's switch to this compound now.
Lookup: Lab request: please report pKi under test system CB2 receptor (Mus musculus, UniProt P47936) for CCCCC/C=C\C/C=C\C/C=C\C/C=C\CCCCOC(=O)N[C@@H](C)CO
Found: 5.67

----------
- targetOrTestSystem: CB1 cannabinoid receptor (Rattus norvegicus)
- Construct: membranes were prepared from rat forebrain membranes; from tissue; host or cells: rat forebrain
- procedureSummary: CB1 receptor binding, [3H]CP-55,940 displacement
- testParameters: without PMSF (first value of cell); rat forebrain membranes; read-out: Ki CB1 (nM) (o/w PMSF)
Reported Ki by item:
Kindly answer with a numeric value in nM, unit omitted.

Below: 5 compounds and their reported Ki.
{"columns": ["compound", "targetOrTestSystem", "measureUnit", "Ki"],
 "data": [
  ["CCCCC/C=C\\C/C=C\\C/C=C\\C/C=C\\CCCCNC(=O)NC[C@H](C)O", "CB1 cannabinoid receptor (Rattus norvegicus)", "nM", 380],
  ["CCCCC/C=C\\C/C=C\\C/C=C\\C/C=C\\CCCCNC(=O)OC[C@H](C)O", "CB1 cannabinoid receptor (Rattus norvegicus)", "nM", 1200],
  ["CCCCCC=CCC=CCC=CCC=CCCCCOC(=O)NCC(C)O (stereo not drawn) [Compound B4]", "CB1 cannabinoid receptor (Rattus norvegicus)", "nM", 338],
  ["CCCCC/C=C\\C/C=C\\C/C=C\\C/C=C\\CCCCOC(=O)NC1CC1", "CB1 cannabinoid receptor (Rattus norvegicus)", "nM", 181],
  ["CCCCC/C=C\\C/C=C\\C/C=C\\C/C=C\\CCCCOC(=O)NC1CCCCC1", "CB1 cannabinoid receptor (Rattus norvegicus)", "nM", 3960]
]}

Read the next record carefully.
Lookup: So what Ki did CCCCC/C=C\C/C=C\C/C=C\C/C=C\CCCCOC(=O)NC(C)C get with CB1 cannabinoid receptor (Rattus norvegicus)?
Found: 510

----------
- targetOrTestSystem: CB1 cannabinoid receptor (Rattus norvegicus)
- Construct: membranes were prepared from rat forebrain membranes; from tissue; host or cells: rat forebrain
- procedureSummary: CB1 receptor binding, [3H]CP-55,940 displacement
- testParameters: without PMSF (first value of cell); rat forebrain membranes; read-out: Ki CB1 (nM) (o/w PMSFQ)
Label Fulfilled when Ki < 100 nM; otherwise Not fulfilled.

{"columns": ["compound", "assignedClass"],
 "data": [
  ["[N-]=[N+]=NCCCC/C=C\\C/C=C\\C/C=C\\C/C=C\\CCCC(=O)NC1CCC1 [Compound A9]", "Not fulfilled"],
  ["CCCCCN(C)C/C=C\\C/C=C\\C/C=C\\C/C=C\\CCCCNC(=O)c1ccc(O)cc1 [Compound A27]", "Not fulfilled"],
  ["O=C(CCC/C=C\\C/C=C\\C/C=C\\C/C=C\\CCc1ccccc1)Nc1nccs1 [Compound A4]", "Not fulfilled"],
  ["COc1cc(CNC(=O)CCC/C=C\\C/C=C\\C/C=C\\C/C=C\\CCCCCN=[N+]=[N-])ccc1O [Compound A15]", "Fulfilled"],
  ["CCCCCN(C)C/C=C\\C/C=C\\C/C=C\\C/C=C\\CCCCNC(=O)c1ccc(O)cc1 [Compound A26]", "Not fulfilled"],
  ["O=C(CCC/C=C\\C/C=C\\C/C=C\\C/C=C\\CCCCCBr)NC1CC1 [Compound A18]", "Fulfilled"],
  ["[N-]=[N+]=NCCCCC/C=C\\C/C=C\\C/C=C\\C/C=C\\CCCC(=O)Nc1ccc(O)cc1 [Compound A13]", "Not fulfilled"],
  ["CCCCCN(C)C/C=C\\C/C=C\\C/C=C\\C/C=C\\CCCCNC(C)=O [Compound A23]", "Not fulfilled"]
]}

Lookup: Is Ki strictly under 100 nM for the entry O=C(CCC/C=C\C/C=C\C/C=C\C/C=C\CCCCN=C=S)NCC1CC1 [Compound A11] ?
Found: Fulfilled

Lookup: Given CCCCCN(C)C/C=C\C/C=C\C/C=C\C/C=C\CCCCNC(C)=O [Compound A25] , is recorded Ki strictly lower than 100 nM?
Found: Not fulfilled

----------
- targetOrTestSystem: CB1 cannabinoid receptor (Rattus norvegicus, UniProt P20272)
- Construct: membranes were prepared from rat forebrain membranes; from tissue; host or cells: rat forebrain
- Sequence (P20272 whole entry): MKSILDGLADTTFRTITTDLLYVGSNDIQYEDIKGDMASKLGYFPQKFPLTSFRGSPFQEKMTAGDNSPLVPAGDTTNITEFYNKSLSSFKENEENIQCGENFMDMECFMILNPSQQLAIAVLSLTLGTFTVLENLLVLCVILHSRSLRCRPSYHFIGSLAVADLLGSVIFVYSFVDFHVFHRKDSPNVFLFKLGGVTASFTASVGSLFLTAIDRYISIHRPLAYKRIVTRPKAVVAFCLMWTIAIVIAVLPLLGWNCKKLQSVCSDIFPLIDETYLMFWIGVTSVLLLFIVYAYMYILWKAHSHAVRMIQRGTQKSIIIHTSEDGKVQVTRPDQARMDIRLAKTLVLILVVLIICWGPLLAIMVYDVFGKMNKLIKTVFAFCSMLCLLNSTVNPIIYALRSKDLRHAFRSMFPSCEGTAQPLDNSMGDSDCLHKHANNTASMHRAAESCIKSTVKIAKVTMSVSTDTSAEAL
- procedureSummary: CB1 receptor binding, [3H]CP-55,940 displacement
- testParameters: without PMSF (first value of cell); rat forebrain membranes; read-out: Ki CB1 (nM) (o/w PMSF)
Each record is given rule met if its reported Ki is strictly below 1000 nM. Records at or above 1000 nM are given rule not met.

See these solved cases before continuing.
{"columns": ["compound", "targetOrTestSystem", "assignedClass"],
 "data": [
  ["CCCCC/C=C\\C/C=C\\C/C=C\\C/C=C\\CCCCOC(=O)NC1CCC1", "CB1 cannabinoid receptor (Rattus norvegicus, UniProt P20272)", "rule not met"],
  ["CCCCCCCCC=CCCCCCCCCOC(=O)NCC(C)O (stereo not drawn)", "CB1 cannabinoid receptor (Rattus norvegicus, UniProt P20272)", "rule not met"],
  ["CCCCCC=CCC=CCC=CCC=CCCCCOC(=O)NCC(C)O (stereo not drawn) [Compound B3]", "CB1 cannabinoid receptor (Rattus norvegicus, UniProt P20272)", "rule met"],
  ["CCCCC/C=C\\C/C=C\\CCCCCCCCOC(=O)NC[C@H](C)O", "CB1 cannabinoid receptor (Rattus norvegicus, UniProt P20272)", "rule not met"],
  ["CCCCC/C=C\\C/C=C\\C/C=C\\C/C=C\\CCCCOC(=O)Nc1cccnc1", "CB1 cannabinoid receptor (Rattus norvegicus, UniProt P20272)", "rule met"],
  ["CCCCC/C=C\\C/C=C\\C/C=C\\C/C=C\\CCCCOC(=O)N[C@H](C)CO", "CB1 cannabinoid receptor (Rattus norvegicus, UniProt P20272)", "rule not met"],
  ["CCCCC/C=C\\C/C=C\\C/C=C\\C/C=C\\CCCCOC(=O)Nc1ccc(O)cc1", "CB1 cannabinoid receptor (Rattus norvegicus, UniProt P20272)", "rule not met"],
  ["CC/C=C\\C/C=C\\C/C=C\\CCCCCCCCOC(=O)NC[C@H](C)O", "CB1 cannabinoid receptor (Rattus norvegicus, UniProt P20272)", "rule met"]
]}

Lookup: Quick check: does CCCCC/C=C\C/C=C\C/C=C\C/C=C\CCCCOC(=O)N[C@@H](C)CO have Ki under 1000 nM?
Found: rule not met

----------
- targetOrTestSystem: CB1 cannabinoid receptor (Rattus norvegicus, UniProt P20272)
- Construct: membranes were prepared from rat forebrain membranes; from tissue; host or cells: rat forebrain
- procedureSummary: CB1 receptor binding, [3H]CP-55,940 displacement
- testParameters: without PMSF (first value of cell); rat forebrain membranes; read-out: Ki CB1 (nM) (o/w PMSFQ)
Measured Ki, listed per entry for reference.
Output should be the measured figure followed by the unit it is expressed in.

Consider the worked cases shown below.
{"columns": ["structureSmiles", "Ki"],
 "data": [
  ["O=C(CCC/C=C\\C/C=C\\C/C=C\\C/C=C\\CCc1ccccc1)NCC1CC1", "729 nM"],
  ["[N-]=[N+]=NCCCC/C=C\\C/C=C\\C/C=C\\C/C=C\\CCCC(=O)NCC1CC1", "195 nM"]
]}

Now take the following compound into account.
Lookup: Dear colleague, I am looking for the recorded Ki of the following compound: [N-]=[N+]=NCCCCC/C=C\C/C=C\C/C=C\C/C=C\CCCC(=O)NC1CC1
Found: 26.7 nM

----------
- targetOrTestSystem: CB1 cannabinoid receptor (Rattus norvegicus)
- Construct: membranes were prepared from rat forebrain membranes; from tissue; host or cells: rat forebrain
- procedureSummary: CB1 receptor binding, [3H]CP-55,940 displacement
- testParameters: with PMSF (second value of cell); rat forebrain membranes; read-out: Ki CB1 (nM) (o/w PMSF)
Ki values, listed per item
Kindly answer with a numeric value in nM, unit omitted.

{"columns": ["molecule", "Ki [nM]"],
 "data": [
  ["CCCCC/C=C\\C/C=C\\C/C=C\\C/C=C\\CCCCOC(=O)N[C@@H](C)CO", 996],
  ["CCCCC/C=C\\C/C=C\\C/C=C\\C/C=C\\CCCCOC(=O)Nc1ccc(O)cc1", 3300],
  ["CCCCC/C=C\\C/C=C\\C/C=C\\C/C=C\\CCCCOC(=O)N[C@H](C)CO", 1440],
  ["CCCCC/C=C\\C/C=C\\C/C=C\\C/C=C\\CCCCOC(=O)NC1CC1", 75.1],
  ["CCCCC/C=C\\C/C=C\\C/C=C\\C/C=C\\CCCCOC(=O)NC(C)C", 343]
]}

Next:
Lookup: Checklist item: Ki tested on CB1 cannabinoid receptor (Rattus norvegicus), entry CCCCCC=CCC=CCC=CCC=CCCCCOC(=O)NCC(C)O (stereo not drawn) [Compound B3] , value?
Found: 396

Hello, the source for this data is patent US8202893B2, in case you need it.
